molecular target: PD-1/PD-L1 (Homo sapiens, UniProt Q9NZQ7); construct: TVMV protease site linker (C); made in house; host or cells: HEK293T cells; assay: PD-1/PD-L1 Homogenous Time-Resolved Fluorescence (HTRF) binding assay; details: PD-L1-His 10 nM, PD-1-Ig 20 nM
Sequence (Q9NZQ7 18-239): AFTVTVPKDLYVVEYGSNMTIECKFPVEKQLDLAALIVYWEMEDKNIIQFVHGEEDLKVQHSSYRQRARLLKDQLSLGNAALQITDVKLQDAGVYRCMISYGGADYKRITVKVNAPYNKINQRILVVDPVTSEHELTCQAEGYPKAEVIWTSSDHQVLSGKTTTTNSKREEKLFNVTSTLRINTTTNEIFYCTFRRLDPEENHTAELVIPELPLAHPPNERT
Define the label as 1.0 when IC50 is strictly less than 2 nM and as 0.0 in all remaining cases.

INSERT INTO results (molecule, measurement_target, classification) VALUES
  ('Cc1c(COc2cc(OCc3cncc(C#N)c3)c(CN(C)Cc3cc4ccccn4n3)cc2Cl)cccc1-c1cccc(OCCCN2CC[C@@H](O)C2)c1C', 'PD-1/PD-L1 (Homo sapiens, UniProt Q9NZQ7)', 0.0),
  ('Cc1c(COc2cc(OCc3cncc(C#N)c3)c(CNCCc3nc4ccccc4[nH]3)cc2Cl)cccc1-c1cccc(OCC2CCCN(C)C2)c1Cl (stereo not drawn)', 'PD-1/PD-L1 (Homo sapiens, UniProt Q9NZQ7)', 0.0),
  ('Cc1c(COc2cc(OCc3cncc(C#N)c3)c(CNCc3cc(-c4ccccc4)on3)cc2Cl)cccc1-c1cccc(OCCCN2CC[C@@H](O)C2)c1C', 'PD-1/PD-L1 (Homo sapiens, UniProt Q9NZQ7)', 0.0),
  ('Cc1c(COc2cc(OCc3cncc(C#N)c3)c(CNCCc3nc4ccccc4[nH]3)cc2Cl)cccc1-c1cccc(OCCCN2CC[C@@H](O)C2)c1C', 'PD-1/PD-L1 (Homo sapiens, UniProt Q9NZQ7)', 0.0),
  ('Cc1c(COc2cc(OCc3cncc(C#N)c3)c(CN(C)Cc3cc(C)n(C)n3)cc2Cl)cccc1-c1cccc(OCCCN2CC[C@@H](O)C2)c1C', 'PD-1/PD-L1 (Homo sapiens, UniProt Q9NZQ7)', 0.0);

Inquiry: Consider the molecule Cc1c(COc2cc(OCc3cncc(C#N)c3)c(CNCc3cc(C)n(C)n3)cc2Cl)cccc1-c1cccc(OCC2CCCN(C)C2)c1Cl (stereo not drawn) . Is its IC50 strictly less than 2 nM?
Reply text: 0.0

Inquiry: Continue with Cc1n[nH]c(C)c1C(NCc1cc(Cl)c(OCc2cccc(-c3cccc(OCC4CCCN(C)C4)c3Cl)c2C)cc1OCc1cncc(C#N)c1)C(=O)O (stereo not drawn)
Reply text: 1.0

Inquiry: Continue with Cc1c(COc2cc(OCc3cncc(C#N)c3)c(CN3CCCCC3c3cc[nH]n3)cc2Cl)cccc1-c1cccc(OCC2CCCN(C)C2)c1Cl (stereo not drawn)
Reply text: 1.0

Inquiry: Continue with "Cc1c(COc2cc(OCc3cncc(C#N)c3)c(CNCc3cc[nH]n3)cc2Cl)cccc1-c1cccc(OCCCN2CCC(O)(CO)CC2)c1Cl"
Reply text: 0.0

Inquiry: Continue with "Cc1c(COc2cc(OCc3cncc(C#N)c3)c(CNCCc3nc4cc(Cl)ccc4[nH]3)cc2Cl)cccc1-c1cccc(OCCCN2CC[C@@H](O)C2)c1C"
Reply text: 0.0
